FYI, the data here is from patent US6645959B1.

# Measurement notes: Oral pharmacokinetics in the dog
# Type: in vivo
# Assay setup: in vivo, dogs, read-out: elimination half-life (converted)
Counter-ions that a name gives are not always drawn.

{"Compound": "Cc1nc2c([nH]1)-c1ccccc1N(C(=O)c1ccc(NC(=O)c3ccccc3-c3ccccc3)cc1)CC2 [YM087, hydrochloride]", "half-life / h": 2}

###

# Measurement notes: Pharmacokinetics in healthy subjects (Phase 1)
# Assay setup: human, plasma, oral
Counter-ions that a name gives are not always drawn.

{"Compound": "Cc1nc2c([nH]1)-c1ccccc1N(C(=O)c1ccc(NC(=O)c3ccccc3-c3ccccc3)cc1)CC2 [YM087, hydrochloride]", "bioavailability": "43 to 59%"}

###

# Measurement notes: Pharmacokinetics in healthy subjects (Phase 1)
# Assay setup: human, plasma
Structures can show the parent of a compound that is named as a salt.

{"Molecule": "Cc1nc2c([nH]1)-c1ccccc1N(C(=O)c1ccc(NC(=O)c3ccccc3-c3ccccc3)cc1)CC2 [YM087, hydrochloride]", "half-life": "4 to 5 h"}
